Data origin, for the record: paper PMC8138313

tested.target: HLA A*2402 (Homo sapiens, UniProt P04439, D101N/D140Y/D185E/E176V/E190D/F33S/G103R/G107R/I119L/I121M/I306V/K335N/L105A/L180Q/L300P/N151K/N90K/Q86E/Q94H/R106L/R138H/R89G/T104I/T345S/V100E/W191G/Y123F)
assay.explanation: HLA class I binding assay (cell-free competition, fluorescence polarization)
pIC50: −log10 of the molar value. Where a SMILES comes first, the peptide text is derived from it.
We use 5 as the dividing line for pIC50: on or above the line is 1, below is -1.

| compound | assigned.class |
| --- | --- |
| CC[C@H](C)[C@H](NC(=O)[C@H](Cc1ccc(O)cc1)NC(=O)[C@@H]1CCCN1C(=O)[C@@H]1CCCN1C(=O)[C@H](CC(C)C)NC(=O)CNC(=O)[C@@H](NC(=O)[C@@H](NC(=O)[C@@H](N)Cc1ccc(O)cc1)[C@@H](C)O)[C@@H](C)CC)C(=O)O (H-YTIGLPPYI-OH) | 1 |
| CC[C@H](C)[C@H](NC(=O)[C@H](CCCNC(=N)N)NC(=O)[C@@H]1CCCN1C(=O)[C@H](CC(=O)O)NC(=O)[C@H](Cc1ccc(O)cc1)NC(=O)[C@@H](N)CCCCN)C(=O)N[C@@H](CO)C(=O)NCC(=O)N[C@@H](Cc1c[nH]c2ccccc12)C(=O)O (H-KYDPRISGW-OH) | 1 |
| CSCC[C@H](N)C(=O)N[C@@H](Cc1ccc(O)cc1)C(=O)N[C@@H](Cc1c[nH]cn1)C(=O)N[C@@H](CC(N)=O)C(=O)N[C@@H](CCCCN)C(=O)N[C@@H](CCC(=O)O)C(=O)N[C@@H](Cc1ccccc1)C(=O)N[C@@H](CC(=O)O)C(=O)N[C@@H](Cc1ccccc1)C(=O)O (H-MYHNKEFDF-OH) | 1 |
| CC[C@H](C)[C@H](N)C(=O)N[C@@H](Cc1c[nH]c2ccccc12)C(=O)N[C@@H](Cc1ccc(O)cc1)C(=O)N[C@@H](CCCCN)C(=O)N[C@@H](Cc1ccc(O)cc1)C(=O)N[C@H](C(=O)N[C@@H](CCC(=O)O)C(=O)N[C@@H](CO)C(=O)N[C@@H](CC(=O)O)C(=O)N[C@@H](Cc1ccccc1)C(=O)O)[C@@H](C)O (H-IWYKYTESDF-OH) | 1 |
| CC[C@H](C)[C@H](NC(=O)[C@H](CC(N)=O)NC(=O)[C@H](Cc1ccc(O)cc1)NC(=O)[C@H](CCC(N)=O)NC(=O)[C@H](CC(=O)O)NC(=O)[C@H](CC(N)=O)NC(=O)[C@H](CC(N)=O)NC(=O)[C@H](Cc1ccc(O)cc1)NC(=O)[C@@H](N)CC(N)=O)C(=O)O (H-NYNNDQYNI-OH) | 1 |
| CC[C@H](C)[C@H](NC(=O)[C@@H](NC(=O)[C@@H]1CCCN1C(=O)[C@H](Cc1ccc(O)cc1)NC(=O)[C@@H](N)Cc1ccc(O)cc1)[C@@H](C)CC)C(=O)N[C@@H](CCCNC(=N)N)C(=O)N[C@@H](CCCCN)C(=O)N[C@@H](CCC(N)=O)C(=O)N[C@@H](Cc1ccccc1)C(=O)O (H-YYPIIRKQF-OH) | 1 |
| CC[C@H](C)[C@H](NC(=O)[C@H](CO)NC(=O)[C@H](Cc1ccc(O)cc1)NC(=O)[C@@H](N)[C@@H](C)O)C(=O)N[C@@H](Cc1ccc(O)cc1)C(=O)N[C@H](C(=O)N[C@@H](CC(N)=O)C(=O)N[C@@H](Cc1ccccc1)C(=O)N[C@@H](CCCCN)C(=O)N[C@@H](CC(N)=O)C(=O)O)[C@@H](C)O (H-TYSIYTNFKN-OH) | -1 |
| CC[C@H](C)[C@H](NC(=O)[C@H](CCC(=O)O)NC(=O)[C@H](CC(N)=O)NC(=O)[C@H](CC(C)C)NC(=O)[C@H](CC(C)C)NC(=O)[C@@H]1CCCN1C(=O)[C@@H]1CCCN1C(=O)[C@H](CC(C)C)NC(=O)[C@@H](N)CCCCN)C(=O)O (H-KLPPLLNEI-OH) | 1 |
| CC(C)C[C@H](N)C(=O)N[C@@H](Cc1ccccc1)C(=O)NCC(=O)N[C@@H](CC(=O)O)C(=O)N[C@@H](CCC(=O)O)C(=O)N[C@@H](CC(N)=O)C(=O)N[C@@H](Cc1ccccc1)C(=O)N[C@@H](CO)C(=O)N[C@@H](Cc1ccccc1)C(=O)O (H-LFGDENFSF-OH) | 1 |
| CSCC[C@H](NC(=O)[C@@H](N)CC(N)=O)C(=O)N[C@@H](CC(N)=O)C(=O)N[C@@H](Cc1ccc(O)cc1)C(=O)N[C@@H](CCCCN)C(=O)N[C@@H](CCC(N)=O)C(=O)N[C@@H](CC(N)=O)C(=O)N[C@@H](CC(N)=O)C(=O)N[C@@H](Cc1ccccc1)C(=O)O (H-NMNYKQNNF-OH) | -1 |
| CSCC[C@H](NC(=O)[C@H](CCC(=O)O)NC(=O)[C@@H](N)[C@@H](C)O)C(=O)N[C@@H](Cc1ccccc1)C(=O)N[C@@H](CCCCN)C(=O)N[C@@H](CC(C)C)C(=O)N[C@@H](CCCNC(=N)N)C(=O)N[C@@H](CC(C)C)C(=O)N[C@@H](CC(N)=O)C(=O)N[C@@H](CC(C)C)C(=O)O (H-TEMFKLRLNL-OH) | -1 |
